I'd be grateful if you could share measured pest or weed control at 500 g/ha for these entries.
# System: giant foxtail (Setaria faberii)
# EXPERIMENTAL_DETAILS: Test A postemergence
# Format: in vivo
# CONDITION_DETAILS: Setaria faberi, post-emergence, 240 h, 500 g ai/ha, postemergence; 0 to 100 scale, 0 is no effect, 100 is complete control; read-out: Foxtail, Giant plant response rating
Numbers only, in %.

Cc1cc([C@H]2CN(C)C(=O)[C@@H]2C(=O)Nc2cccc(F)c2F)ccc1Br = 80
CCc1cc([C@H]2CN(C)C(=O)[C@@H]2C(=O)Nc2ccccc2F)cs1 = 90
CN1C[C@H](c2ccc(C#N)cc2)[C@@H](C(=O)Nc2ccccc2F)C1=O = 90

Now look at this one.
# input Looking for the measured pest or weed control at 500 g/ha of Cc1cc([C@H]2CNC(=O)[C@@H]2C(=O)Nc2ccccc2C(F)(F)F)ccc1Cl , can you help?
# output 60
